system: cGAS/STING pathway; assay: THP1 cell-based cGAS/STING pathway activity assay (luciferase reporter linked to IRF-3 activation); settings: Homo sapiens, THP-1
pIC50: −log10 of the molar value.
outcome_measure: pIC50

For orientation, consider the following solved cases.
CCc1ccc(-c2c(C)[nH]n3c(-c4ccccc4)c(C#N)nc3c2=O)cc1 [Compound 13] = > 5.00
Cc1[nH]n2c(-c3ccccc3)c(C#N)nc2c(=O)c1-c1cccc(Cl)c1 [Compound 6] = > 5.00

Continue with the molecule presented below.
API: value(readout=pIC50, system=cGAS/STING pathway) for record COc1cccc(-c2c(C)[nH]n3c(-c4ccccc4)c(C#N)nc3c2=O)c1 [Compound 5]
> 5.00
